# target.desc: SpsB (Staphylococcus aureus signal peptidase) (Staphylococcus aureus, UniProt P0A070)
# Construct: This assay uses a suspension of Staphylococcus aureus cells as a source of SpsB instead of recombinant SpsB protein; endogenous in cells; host or cells: S. aureus, USA300 background, overexpressing SpsB (whole-cell suspension from frozen pellets)
# Sequence (P0A070 whole entry): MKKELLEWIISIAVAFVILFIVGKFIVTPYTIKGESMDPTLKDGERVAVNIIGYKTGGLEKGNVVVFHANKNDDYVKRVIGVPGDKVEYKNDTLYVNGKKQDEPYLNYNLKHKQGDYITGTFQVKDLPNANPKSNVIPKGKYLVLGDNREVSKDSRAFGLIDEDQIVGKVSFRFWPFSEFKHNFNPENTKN
# measurement.notes: cell-based
# Assay type: biochemical
# test.context: SpsB IC50, whole-cell S. aureus (USA300 background, overexpressing SpsB) as SpsB source; fluorogenic peptide substrate, kinetic read 30 min
observed.property: pIC50
Kindly note that pIC50 refers to -log10 of the concentration in mol/L and answer with the value alone.

Illustrative cases are given below, each with its answer.
CCCCCCc1ccc(C(=O)N[C@@H](CCN)C(=O)N(C)[C@@H]2C(=O)N[C@@H](C)C(=O)N[C@H](C(=O)NCC#N)Cc3ccc(OCCN)c(c3)-c3cc2ccc3OCCN)cc1 [Compound 195] ... 8.85
CCCCCCSc1ccc(C(=O)N[C@@H](CCN)C(=O)N(C)[C@@H]2C(=O)N[C@@H](C)C(=O)N[C@H](C(=O)NCC#N)Cc3ccc(OCCN)c(c3)-c3cc2ccc3OCCN)c(C)c1 [Compound 391] ... 9.00

Ask: What pIC50 appears in the records for this molecule with SpsB (Staphylococcus aureus signal peptidase) (Staphylococcus aureus, UniProt P0A070)? C[C@@H]1NC(=O)[C@@H](N(C)C(=O)[C@H](CCN)NC(=O)c2ccc(C#Cc3ccccc3)cc2Cl)c2ccc(OCCN)c(c2)-c2cc(ccc2OCCN)C[C@@H](C(=O)NCC#N)NC1=O [Compound 424]
Result: 9.12

Ask: What pIC50 appears in the records for this molecule with SpsB (Staphylococcus aureus signal peptidase) (Staphylococcus aureus, UniProt P0A070)? CCCCCCCCCCNCCC(=O)N[C@@H](CCCCN)C(=O)N(C)[C@@H]1C(=O)N[C@@H](C)C(=O)N[C@H](C(=O)NC(C)C#N)Cc2ccc(OCCN)c(c2)-c2cc1ccc2OCCN (stereo partly shown) [Compound 415]
Result: 7.85

Ask: What pIC50 appears in the records for this molecule with SpsB (Staphylococcus aureus signal peptidase) (Staphylococcus aureus, UniProt P0A070)? Cc1cc(OCC(C)C)ccc1C(=O)N[C@@H](CCN)C(=O)N(C)[C@@H]1C(=O)N[C@@H](C)C(=O)N[C@H](C(=O)NCC#N)Cc2ccc(OCCN)c(c2)-c2cc1ccc2OCCN [Compound 276]
Result: 8.74
